System: pressor response to AII
TEST DESCRIPTION: Assay C: In vivo intragastric pressor assay response for AII antagonists
Parameters: species or system rat
STATED CONDITIONS: Rattus norvegicus, dose 3 mg/kg, intragastric, or intraduodenal for examples listed
PARAMETER: inhibition at 3 mg/kg

1. CCCCc1nc2cnnc(O)c2n1Cc1ccc(-c2ccccc2-c2nnn[nH]2)cc1    40%
2. CCCCc1cn(-c2ccccc2C(C)(C)C)c(=O)n1Cc1ccc(-c2ccccc2-c2nnn[nH]2)nc1    40%
3. CCCCn1nc(C(F)(F)CCC)nc1Cc1ccc(-c2ccccc2-c2nnn[nH]2)nc1    40%

====

SYSTEM: angiotensin II AT1 receptor
TEST DESCRIPTION: Assay A: Angiotensin II binding activity (125I-AII displacement, rat uterine membrane preparation)
pIC50: −log10 of the molar value.
PARAMETER: pIC50

1. CCCCc1nc(CCC)nn1Cc1ccc(-c2ccccc2-c2nnn[nH]2)cc1    8.14
2. CCCCn1nc(CCc2ccccc2)nc1Cc1ccc(-c2ccccc2-c2nnn[nH]2)nc1    7.77
3. CCCCc1nc(CCCNC(=O)OC(C)(C)C)nn1Cc1ccc(-c2ccccc2-c2nnn[nH]2)cc1    8.07
4. CCCCc1cn(-c2ccccc2Cl)c(=O)n1Cc1ccc(-c2ccccc2-c2nnn[nH]2)cc1    7.80
5. CCCCc1nc(CCCC)n(Cc2ccc(-c3cccnc3-c3nnn[nH]3)cc2)n1    6.96
6. CCCCCc1cn(CCCC)c(=O)n1Cc1ccc(-c2ccccc2-c2nnn[nH]2)nc1    8.00
7. CCCCc1cn(CCCC)c(=O)n1Cc1ccc(-c2cccnc2-c2nnn[nH]2)cc1    7.05
8. CCCCc1nc(-c2ccccc2OC)n(Cc2ccc(-c3ccccc3-c3nnn[nH]3)nc2)n1    6.54
9. CCCCn1nc(C2OCCCO2)nc1Cc1ccc(-c2ccccc2-c2nnn[nH]2)nc1    7.70
10. CCCCn1nc(C=O)nc1Cc1ccc(-c2ccccc2-c2nnn[nH]2)nc1    6.51
11. CCCCn1nc(C(=O)N(C)C(C)(C)C)nc1Cc1ccc(-c2ccccc2-c2nnn[nH]2)nc1    7.55
12. CCCCc1nc(C(OC)OC)n(Cc2ccc(-c3ccccc3-c3nnn[nH]3)cc2)n1    6.37
13. CCCCc1nc(CNC(=O)OC(C)(C)C)n(Cc2ccc(-c3ccccc3-c3nnn[nH]3)cc2)n1    6.19
14. CCCCc1cn(C2CCCCC2(C)C)c(=O)n1Cc1ccc(-c2ccccc2-c2nnn[nH]2)nc1 (centres unmarked)    8.44
15. CCCCc1cn(CCc2ccccc2)c(=O)n1Cc1ccc(-c2ccccc2-c2nnn[nH]2)nc1    8.44
16. CCCCn1cc(C2CCCC2)n(Cc2ccc(-c3ccccc3-c3nnn[nH]3)nc2)c1=O    6.85
17. CCCCn1nc(C(O)CCC)nc1Cc1ccc(-c2ccccc2-c2nnn[nH]2)nc1 (centres unmarked)    7.68
18. CCCCn1nc(CCC)nc1Cc1ccc(-c2ccccc2-c2nnn[nH]2)nc1    6.82
19. CCCCc1nc(-c2ccccc2)n(Cc2ccc(-c3ccccc3-c3nnn[nH]3)nc2)n1    6.66
20. CCCCn1nc(C(=O)NC)nc1Cc1ccc(-c2ccccc2-c2nnn[nH]2)nc1    7.15

The reported numbers originate from patent US6653306B1.
